meta.source: patent US20250034091A1

test: Mouse Pharmacokinetic Profile (IP); type: in vivo; settings: brain, read-out: Brain T1/2
Measure Name: half-life (min)
Write it as a number; the unit min goes unstated.

Q) Please report the recorded half-life for O=C(COc1ccc(N2C(=O)[C@@H]3[C@@H]4C=C[C@@H]([C@H]5C[C@@H]45)[C@@H]3C2=O)nc1)c1ccc(Cl)c(Cl)c1 [compound 79] .
A) 62.4

###

test: Mouse Pharmacokinetic Profile (IP); format: in vivo; design: concentration or dose not given beside the values; details: plasma
Measure Name: AUC (µg·h/mL)
Write it as a number; the unit µg·h/mL goes unstated.

Worked cases, answers included:
Compound	Endpoint Result
COc1ccc(C(=O)C2CC2c2ccc(N3C(=O)[C@@H]4[C@@H]5C=C[C@@H]([C@H]6C[C@@H]56)[C@@H]4C3=O)c(F)c2)cc1Cl (stereo partly shown)	7.34
O=C(COc1cnc(N2C(=O)[C@@H]3[C@@H]4C=C[C@@H]([C@H]5C[C@@H]45)[C@@H]3C2=O)nc1)c1ccc(Cl)c(Cl)c1	4.78
O=C(COc1ccc(N2C(=O)[C@@H]3[C@@H]4C=C[C@@H]([C@H]5C[C@@H]45)[C@@H]3C2=O)nc1)c1ccc(Cl)c(Cl)c1	15

Then there is this compound:
Q) Please report the recorded AUC for COc1ccc(C(=O)C2CC2c2ccc(N3C(=O)[C@@H]4[C@@H]5C=C[C@@H]([C@H]6C[C@@H]56)[C@@H]4C3=O)cc2)cc1 (stereo partly shown) .
A) 4.35

###

tested on: Mut6 cells; experiment: Mut6 cell survival / anti-proliferative activity; assay type: cell-based, murine; settings: Mus musculus, Tables 1-6, read-out: Mut6 IC50
Recorded pIC50, one value per entry.
Lab note — pIC50 values are minus log10 of concentrations in M.

Molecule	pIC50
O=C(COc1ccc(N2C(=O)[C@@H]3[C@@H]4C=C[C@@H]([C@H]5C[C@@H]45)[C@@H]3C2=O)cc1)c1ccc2ccccc2c1 [64a]	8.07

Then there is this molecule:
Q) Please report the recorded pIC50 for `O=C(COc1ccc(N2C(=O)[C@@H]3[C@@H]4C=C[C@@H]([C@H]5C[C@@H]45)[C@@H]3C2=O)nc1)c1ccc(Cl)c(Cl)c1` .
A) 7.85

###

assay: metabolic stability in S9 fractions; type: in vitro ADME, murine; conditions: mouse; S9 fractions; Tables 1-6; read-out: S9 T1/2
Measure Name: half-life (min)
Write it as a number; the unit min goes unstated.

Q) Please report the recorded half-life for O=C(COc1ccc(N2C(=O)[C@@H]3[C@H](C2=O)[C@@H]2C=C[C@H]3C3CC32)cc1)c1cnc(Cl)c(Cl)c1 (some centres unmarked) [compound 81] .
A) 5.3

###

test: Mouse Pharmacokinetic Profile (IP); assay type: in vivo; conditions: plasma, read-out: Plasma T1/2
Measure Name: half-life
I'd appreciate it if you included the unit after the number.

Q) Please report the recorded half-life for O=C(COc1ccc(N2C(=O)[C@@H]3[C@@H]4C=C[C@@H]([C@H]5C[C@@H]45)[C@@H]3C2=O)nc1)c1ccc(Cl)c(Cl)c1 [compound 79] .
A) 1.97 h

###

Target: p75/LSS (Mus musculus, UniProt Q8BLN5)
Construct: endogenous in cells; host or cells: Mut6 murine GBM stem-like cells
Test: p75 probe-displacement assay with MM0299-probe in Mut6 cells
Type: binding
Method: We sought to understand the mechanism of action (MoA) of MM0299 by identifying which proteins it binds to in Mut6 cells. […] To determine whether binding to any of the observed bands was related to toxicity, we performed a series of probe-displacement assays by co-incubating cells with a fixed concentration of probe 2 and increasing concentrations of competitor 1. […] Even though probe 2 bound to multiple proteins, we observed that only p75 fluorescence decreased in a dose-dependent manner. […]
Measure Name: pEC50
Lab note — pEC50 values are minus log10 of concentrations in M.

Q) Please report the recorded pEC50 for O=C(COc1ccc(N2C(=O)C3C4C=CC(C5CC45)C3C2=O)cc1)c1cc(Cl)cc(Cl)c1 (stereo not shown) .
A) 7.54
